assay: yeast display, Sf9 membrane polyspecificity reagent, FACS + sequencing; frameworks hold sequencing errors
property.label: polyreactivity (PSR sort gate)

QVQLVESGGGLVQAGGSLRLSCAASGFIFGVYDMGRYRQAPVKERDLVAAISIDDITNYADSVKGRFTISRDNAKNTVYLHLNSLKPEVTAVYYCAADGRTWWSNLEGEYWGQGTQVTVSS ... low polyreactivity
QVQLVESGGGLVQAGGSLRLSCAASGLIIWLYTMGWYRQAPGKERELVAAIDWSGGSTYYADSVKGRFTISRDNAKNTDYLQMNSLKPEDTAVYYCAADPEPSYRFDYCGQGTQVTVSS ... low polyreactivity
QVQLVESGGGLVQAGGSLRLSCAASGRIFHTYGMGWYRQAPGKERELVAAITWTGGSTYYADSVKGRFTISRDNAKNTVYLQMNSLKPEDTAVYYCAADYPRDIIGSMDYWGQGTQVTVSS ... low polyreactivity

----------
assay: yeast display, Sf9 membrane polyspecificity reagent, FACS + sequencing; frameworks hold sequencing errors
property.label: polyreactivity (PSR sort gate)

A selection of reference data follows.
QVQLVDSAGGLVQAGGSLRLSCAASGITFGYYAMGWYRQAPGKERELVAAITSSGSTYYADSVKGRFTISRDNAKNTVYLQMNSLNPEDTAVYYCAARSWYSKYYYWGQGTQVTVSS ... high polyreactivity
KVQLVESGGGLVQAGGSLRLSCAASGFTFLRYAMGGYRQAPGKERELVAAIRFSGGSTYYADSVKGRFTISRDNAKNNVYLQMNSLKPEDTAVYYCAAYIRSYGYDYWGQGTKVTVSS ... high polyreactivity
QVQIVETGGGLVQAGGSLRLSCDASGSIFPDYAKGWYRQAPRKERELLASISWDGGSTYYADSVKGRFTISRDNAKNTVYLQMNSLKPEDTAVYYCATEWLVGGGVTVDYWGQGTQVSVSS ... low polyreactivity
QVQLVESRGGLVQAGGSHRLSCAASGSIFGANAMGWYRQAPGKERELVAAITSGSGTNYADSVKGRFTISRDNAKNTVYLQMISLNPEDTAVYYCAAVVLYQGRYDYWGQGTQVTVSS ... low polyreactivity
QVQLVDSGGGLVQAGGSLRITCAASGFTFTRYALGGYRQAPGKERELVAVITSTAGSTYYADSVKGRFTISRDNAKNSVYLQMNSLKAEVTAVYFCAAESLVHGDVTLEEVVAQSYDYWGQGSQVTVSS ... low polyreactivity

*Q* May I ask what polyreactivity (PSR sort gate) has been recorded for "QVQVVESGGGLVQAGGSLRLSCAASGFTFDYYNMGWYRQAPGKERELVAAITSGASTNYADSVKGRFTISRDNAKNTVYLQMNSLKPEDTAVYYCAAVLAGGVYWVVHYDYWGQGTQVSVSS" ?
*A* low polyreactivity

*Q* May I ask what polyreactivity (PSR sort gate) has been recorded for "QVQLVESGGGLVQAGGSLRLSCAASGSTFPEYAMGWYRQAPGKERELVAAISKRGGRTYYADSVKGRFTISRDNAKNTVYLQMNSLKPEETAVYYCARDSYPHGRARFDYWGQGTQVTVSS" ?
*A* high polyreactivity

*Q* May I ask what polyreactivity (PSR sort gate) has been recorded for "QVQRVESGGGLVQAGGSLRLSCAASGSIFGYYAMGWSRQAPVKERELVAAITRSCGSTYYADSVKGRFTISRDNAKTTVYLQMNSLKPEDTAVYYCNAVRYAVRLPAFPGYDYLGQGTQVTVSS" ?
*A* high polyreactivity

*Q* May I ask what polyreactivity (PSR sort gate) has been recorded for "QVQLVDSGGGLVQAGGSLRLSCDASGFIFERYAMGWYRQAPGKERELVAGIYSGGSTYYADSVKGRFTISRDNAKNTVYLQMNSLKPEDTAVYYCAPYRRQHIIYNYWGQGTQVTVSS" ?
*A* high polyreactivity
